- Assay Text: absorption spectrum (maximum absorption wavelength, molar extinction coefficient)
- Assay type: physicochemical
Let's look at some compounds and their measured molar extinction coefficient.

Compound	Result Value
COc1c2c3c4c(c(NCCCC(=O)NCCCCCCS(=O)(=O)O)c(=O)c5c(NCCCC(=O)NCCCCCCS(=O)(=O)O)cc(OC)c(c6c(OC)cc(O)c(c1=O)c63)c54)C=C(C)C2	33,500 M^−1cm^−1
COc1c(O)c2c(=O)cc(OC)c3c4c(OC)cc(=O)c5c(NC(CS)C(=O)O)c(NC(CS)C(=O)O)c6c(c(c1C(C(C)=O)C(C)=C6)c23)c54 (centres unmarked) [HB-25a]	21,500 M^−1cm^−1

State the recorded molar extinction coefficient for this entry: COc1c2c3c4c(c(NC5CCC(O)CC5)c(=O)c5c(NC6CCC(O)CC6)cc(OC)c(c6c(OC)cc(O)c(c1=O)c63)c54)C=C(C)C2C(C)=O (centres unmarked) [HB-17c] 26,000 M^−1cm^−1

State the recorded molar extinction coefficient for this entry: COc1c(O)c2c(=O)cc(OC)c3c4c(OC)cc(=O)c5c(NC(CCC(=O)O)C(=O)O)c(NC(CCC(=O)O)C(=O)O)c6c(c(c1C(C(C)=O)C(C)=C6)c23)c54 (centres unmarked) [HB-28a] 20,500 M^−1cm^−1

State the recorded molar extinction coefficient for this entry: COc1c(O)c2c(=O)cc(OC)c3c4c(OC)cc(=O)c5c(NCCS(=O)(=O)O)c(NCCS(=O)(=O)O)c6c(c(c1C(C(C)=O)C(C)=C6)c23)c54 (centres unmarked) [HB-11a-C2-SO3H] 30,000 M^−1cm^−1

State the recorded molar extinction coefficient for this entry: COc1c(O)c2c(=O)cc(OC)c3c4c(OC)cc(=O)c5c(NCCC(=O)NCCN6CCOCC6)c(NCCC(=O)NCCN6CCOCC6)c6c(c(c1C(C(C)=O)C(C)=C6)c23)c54 (centres unmarked) [HB-42a] 32,500 M^−1cm^−1

State the recorded molar extinction coefficient for this entry: `COc1c2c3c4c(c(NCC(=O)O)c(=O)c5c(O)cc(OC)c(c6c(OC)cc(NCC(=O)O)c(c1=O)c63)c54)C=C(C)C2` 26,000 M^−1cm^−1

State the recorded molar extinction coefficient for this entry: COc1c(O)c2c(=O)cc(OC)c3c4c(OC)cc(=O)c5c(NCC6CCC(C(=O)OCC[N+](C)(C)C)CC6)c(NCC6CCC(C(=O)OCC[N+](C)(C)C)CC6)c6c(c(c1CC(C)=C6)c23)c54 (centres unmarked) [HC-13a-C2-N^+] 30,500 M^−1cm^−1

State the recorded molar extinction coefficient for this entry: COCCOCCNC(=O)CCNc1c(NCCC(=O)NCCOCCOC)c2c(=O)cc(OC)c3c4c(OC)cc(=O)c5c(O)c(OC)c6c(c(c1C=C(C)C6C(C)=O)c23)c54 (centres unmarked) [HB-10a-NH-PEG1] 31,500 M^−1cm^−1

State the recorded molar extinction coefficient for this entry: COc1c(O)c2c(=O)cc(OC)c3c4c(OC)cc(=O)c5c(NCC[N+]67CC[N+](C)(CC6)CC7)c(NCC[N+]67CC[N+](C)(CC6)CC7)c6c(c(c1C(C(C)=O)C(C)=C6)c23)c54 (centres unmarked) [HB-41a] 32,500 M^−1cm^−1

State the recorded molar extinction coefficient for this entry: COc1c2c3c4c(c(NCCOCCO)c(=O)c5c(O)cc(OC)c(c6c(OC)cc(NCCOCCO)c(c1=O)c63)c54)C=C(C)C2C(C)=O (centres unmarked) 30,000 M^−1cm^−1
